Below, each of the molecules is paired with its reported IC50 value.
- Target or test system: GSK3β (Homo sapiens, UniProt P49841)
- Sequence (P49841 whole entry, species assumed): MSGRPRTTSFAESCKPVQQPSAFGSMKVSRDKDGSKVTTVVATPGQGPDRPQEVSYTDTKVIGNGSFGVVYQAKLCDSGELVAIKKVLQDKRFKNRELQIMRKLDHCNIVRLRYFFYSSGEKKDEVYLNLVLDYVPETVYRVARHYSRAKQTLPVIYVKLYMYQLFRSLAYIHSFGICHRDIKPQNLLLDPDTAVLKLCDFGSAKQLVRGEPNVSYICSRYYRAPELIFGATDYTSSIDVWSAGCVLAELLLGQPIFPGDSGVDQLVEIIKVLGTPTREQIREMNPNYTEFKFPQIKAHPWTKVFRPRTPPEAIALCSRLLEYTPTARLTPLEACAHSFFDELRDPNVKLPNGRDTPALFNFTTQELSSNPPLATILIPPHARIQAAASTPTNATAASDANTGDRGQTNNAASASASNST
- Measurement notes: GSK3beta assay (SPA, biotinylated phosphorylated CREB peptide, ATP-P33)
- Type: biochemical
- Condition notes: ranges of pIC50 (−log IC50 (M)); 1 μM ATP, room temperature, one hour; read-out: GSK3b pIC50 (converted)
Readout label: IC50

structure_notation=Cn1cc(Br)c(-c2cccc(Nc3ncc4nnn(-c5cccc(F)c5)c4n3)c2)n1 recorded_measurement="1e-08 to 1e-07 M"
structure_notation=COc1cccc(-n2nnc3cnc(Nc4cccc(N5CCN(C)CC5)c4)nc32)c1 recorded_measurement="1e-08 to 1e-07 M"
structure_notation=O=C(NCCN1CCOCC1)c1ccc(Nc2ncc3nnn(-c4cccc(CCO)c4)c3n2)cc1 recorded_measurement="< 1e-08 M"
structure_notation=O=[N+]([O-])c1cc(Nc2ncc3nnn(C4CCCCC4)c3n2)ccc1N1CCOCC1 recorded_measurement="1e-08 to 1e-07 M"
structure_notation=Fc1cccc(-n2nnc3cnc(Nc4cccc(-c5cc[nH]n5)c4)nc32)c1 recorded_measurement="< 1e-08 M"
structure_notation=COCCOc1cccc(-n2nnc3cnc(Nc4ccc(CN5CCN(C)CC5)cc4)nc32)c1 recorded_measurement="1e-08 to 1e-07 M"
structure_notation=Cc1nccc(-c2cccc(Nc3ncc4nnn(-c5cccc(Br)c5)c4n3)c2)n1 recorded_measurement="1e-08 to 1e-07 M"
structure_notation=N#CCc1cccc(-n2nnc3cnc(Nc4cccc(-c5cnco5)c4)nc32)c1 recorded_measurement="< 1e-08 M"

Reference for the values: patent US7449465B2
